- target.or.system: Shiga toxin 2 (Escherichia coli O157:H7) (UniProt P09385+P09386)
- assay.text: E. coli 0.157:H7 Shiga Toxin SOP - stx2 screening assay
- Type: functional
- Design: scale not given: direction of the effect not stated beside the values
- condition.context: 30 µM
// label = satisfied if Percent Effect is not less than -20%, otherwise not satisfied

compound: Cc1ccc(NC(=O)N2C[C@H]3CC[C@@H]2CN(Cc2cscn2)C3)cc1
class.name: satisfied
--
compound: COc1ccc(CC(=O)NC2(C)CCS(=O)(=O)C2)cc1F (stereo unspecified)
class.name: satisfied
--
compound: COc1ccc(F)cc1C(=O)N(C)Cc1cc(C)on1
class.name: not satisfied
--
compound: CCS(=O)(=O)N1C[C@H]2CN(Cc3cccnc3)C(=O)[C@H]2C1
class.name: not satisfied
--
compound: O=C(NCC(Cc1cccc(F)c1)N1CCCC1=O)c1ccccc1 (stereo unspecified)
class.name: satisfied

### Prompt Please check the record `CC(C)NC(=O)N1CC[C@@H]2CN(Cc3cccc(Cl)c3)S(=O)(=O)[C@@H]2CC1` and state if its Percent Effect is at or above -20%.
### Response satisfied

### Prompt Please check the record CN(Cc1cccc(F)c1)C(=O)CN1CCCCC1Cn1cncn1 (stereo unspecified) and state if its Percent Effect is at or above -20%.
### Response satisfied

### Prompt Please check the record CCc1nc(C2CCCN2Cc2nc3ccccc3o2)no1 (stereo unspecified) and state if its Percent Effect is at or above -20%.
### Response satisfied

### Prompt Please check the record `c1ccc(O[C@H]2CC[C@H]3[C@H]2OCCN3Cc2nccs2)nc1` and state if its Percent Effect is at or above -20%.
### Response satisfied

### Prompt Please check the record `O=C(NCC(=O)N1CCCCC1)c1ccoc1` and state if its Percent Effect is at or above -20%.
### Response satisfied
